molecular target: Kv1.3 (Homo sapiens); construct: host or cells: HEK293 or CHO; experiment: cell-based; type: cell-based; settings: peptide at 0.2 μM; 100% = no change, <100% = inhibition
Activity of Kv1.3 with peptide, expressed as a percentage of the reference compound by entry:
State just the number; it will be interpreted in %.

Some solved cases for reference:
For the substance 19 (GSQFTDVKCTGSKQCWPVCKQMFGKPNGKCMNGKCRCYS) [compound 19] , give its reported Activity of Kv1.3 with peptide, expressed as a percentage of the reference compound. 4

For the substance 18 (GSNCAGYMRECKEKLCCSGYVCSSRWKWCVLPAPWRR) [compound 18] , give its reported Activity of Kv1.3 with peptide, expressed as a percentage of the reference compound. 87

For the substance 11 (GSGDCLPHLKRCKENNDCCSKKCKRRGANPEKRCR) [compound 11] , give its reported Activity of Kv1.3 with peptide, expressed as a percentage of the reference compound. 101

---
For the substance 38 (GSGIGDPVTCLKSGAICHPVFCPRRYKQIGTCGLPGTKCCKKP) [compound 38] , give its reported Activity of Kv1.3 with peptide, expressed as a percentage of the reference compound. 101

For the substance 21 (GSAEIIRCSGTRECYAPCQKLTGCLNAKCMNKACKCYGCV) [compound 21] , give its reported Activity of Kv1.3 with peptide, expressed as a percentage of the reference compound. 65

For the substance 13 (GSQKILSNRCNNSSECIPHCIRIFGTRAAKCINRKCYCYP) [compound 13] , give its reported Activity of Kv1.3 with peptide, expressed as a percentage of the reference compound. 68

For the substance 34 (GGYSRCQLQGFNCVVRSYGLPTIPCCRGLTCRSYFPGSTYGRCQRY) [compound 34] , give its reported Activity of Kv1.3 with peptide, expressed as a percentage of the reference compound. 108

For the substance 12 (GSNFKVEGACSKPCRKYCIDKGARNGKCINGRCHCYY) [compound 12] , give its reported Activity of Kv1.3 with peptide, expressed as a percentage of the reference compound. 68

For the substance 22 (GSSDYCSNDFCFFSCRRDRCARGDCENGKCVCKNCHLN) [compound 22] , give its reported Activity of Kv1.3 with peptide, expressed as a percentage of the reference compound. 100

---

Target: Kv1.3 (Homo sapiens)
Construct: host or cells: HEK293 or CHO
Experiment: cell-based
Format: cell-based
Conditions: peptide at 20 μM; 100% = no change, <100% = inhibition
Protocol: This example describes a method for assaying ion channel activity in cells. Peptides were screened in duplicate at final concentrations of 20 μM and 200 nM, as determined by amino acid analysis, and diluted into HEPES buffered physiological saline (HBPS). HEK293 or CHO cells from the American Type Culture Collection (ATCC) were transfected with the appropriate ion channel before use. […]
Assay Endpoint: Activity of Kv1.3 with peptide (percentage of the reference compound) (%)
State just the number; it will be interpreted in %.

Some solved cases for reference:
Specify Activity of Kv1.3 with peptide (percentage of the reference compound) for 2 (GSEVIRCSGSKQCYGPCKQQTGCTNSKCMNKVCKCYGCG) [compound 2] , system Kv1.3 (Homo sapiens). 1

Specify Activity of Kv1.3 with peptide (percentage of the reference compound) for 32 (GSQDKCKKVYENYPVSKCQLANQCNYDCKLDKHARSGECFYDEKRNLQCICDYCEY) [compound 32] , system Kv1.3 (Homo sapiens). 98

Specify Activity of Kv1.3 with peptide (percentage of the reference compound) for 3 (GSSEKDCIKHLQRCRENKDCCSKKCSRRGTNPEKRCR) [compound 3] , system Kv1.3 (Homo sapiens). 87

Specify Activity of Kv1.3 with peptide (percentage of the reference compound) for 20 (GSQIDTNVKCSGSSKCVKICIDRYNTRGAKCINGRCTCYP) [compound 20] , system Kv1.3 (Homo sapiens). 7

Alright, here's another substance for you.
Specify Activity of Kv1.3 with peptide (percentage of the reference compound) for 16 (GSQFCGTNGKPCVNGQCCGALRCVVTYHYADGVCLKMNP) [compound 16] , system Kv1.3 (Homo sapiens). 92

---

target: TRPV1 (Homo sapiens); construct: host or cells: HEK293 or CHO; assay: Ion channel panel (IonWorks Barracuda): TRPV1; assay type: cell-based; conditions: peptide at 0.2 μM; 100% = no change, <100% = inhibition
Sequence (Q8NER1 whole entry): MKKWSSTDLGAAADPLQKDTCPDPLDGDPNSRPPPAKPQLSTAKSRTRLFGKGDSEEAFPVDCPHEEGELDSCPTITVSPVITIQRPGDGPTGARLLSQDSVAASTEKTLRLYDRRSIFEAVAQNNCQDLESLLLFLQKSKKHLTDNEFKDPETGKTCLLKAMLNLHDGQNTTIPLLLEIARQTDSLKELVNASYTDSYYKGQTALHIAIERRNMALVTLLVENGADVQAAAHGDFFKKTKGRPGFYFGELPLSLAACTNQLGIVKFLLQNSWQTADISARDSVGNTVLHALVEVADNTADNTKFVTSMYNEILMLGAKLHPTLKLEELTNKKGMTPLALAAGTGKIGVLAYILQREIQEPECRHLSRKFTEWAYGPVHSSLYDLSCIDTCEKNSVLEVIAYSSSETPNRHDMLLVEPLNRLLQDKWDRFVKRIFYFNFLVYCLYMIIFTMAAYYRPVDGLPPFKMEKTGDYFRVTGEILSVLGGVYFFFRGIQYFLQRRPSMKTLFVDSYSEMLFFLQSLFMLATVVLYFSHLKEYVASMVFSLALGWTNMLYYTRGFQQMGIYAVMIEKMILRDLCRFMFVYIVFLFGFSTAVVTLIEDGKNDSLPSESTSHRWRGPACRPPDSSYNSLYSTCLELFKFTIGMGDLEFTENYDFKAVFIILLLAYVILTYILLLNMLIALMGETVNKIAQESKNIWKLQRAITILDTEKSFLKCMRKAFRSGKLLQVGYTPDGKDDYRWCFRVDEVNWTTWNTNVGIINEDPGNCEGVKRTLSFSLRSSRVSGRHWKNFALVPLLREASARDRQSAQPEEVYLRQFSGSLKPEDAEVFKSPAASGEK
Assay Endpoint: Activity of TRPV1 with peptide, expressed as a percentage of the reference compound (%)
State just the number; it will be interpreted in %.

For the substance 12 (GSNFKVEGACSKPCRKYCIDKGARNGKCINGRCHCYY) [compound 12] , give its reported Activity of TRPV1 with peptide, expressed as a percentage of the reference compound. 97

For the substance 2 (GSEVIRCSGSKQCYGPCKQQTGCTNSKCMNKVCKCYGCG) [compound 2] , give its reported Activity of TRPV1 with peptide, expressed as a percentage of the reference compound. 95

For the substance 27 (GSACQFWSCNSSCISRGYRQGYCWGIQYKYCQCQ) [compound 27] , give its reported Activity of TRPV1 with peptide, expressed as a percentage of the reference compound. 99

---
For the substance 15 (GSAVCNLKRCQLSCRSLGLLGKCIGDKCECVKHG) [compound 15] , give its reported Activity of TRPV1 with peptide, expressed as a percentage of the reference compound. 124

For the substance 6 (GSVRIPVSCKHSGQCLKPCKDAGMRFGKCMNGKCDCTPK) [compound 6] , give its reported Activity of TRPV1 with peptide, expressed as a percentage of the reference compound. 86

---

biological target: Kir2.1 (Homo sapiens); experiment: Ion channel panel (IonWorks Barracuda): Kir2.1; settings: Kir2.1; read-out: IC50 of receptor/channel inhibition with reference compound
Assay Endpoint: pIC50
Would you please state pIC50, meaning minus log10 of the concentration in mol/L, as a bare number?

For the compound [Ba+2].[Cl-].[Cl-] [BaCl2, reference compound] , give its reported pIC50. 5.28

---

target: Nav1.5 (Homo sapiens, UniProt Q14524); assay: in vitro; conditions: peptide at 0.2 μM; second of two Nav1.5 columns (probably TP2); 100% = no change
Assay Endpoint: Activity of Nav1.5 with peptide, expressed as a percentage of the reference compound (%)
State just the number; it will be interpreted in %.

Some solved cases for reference:
For the substance 5 (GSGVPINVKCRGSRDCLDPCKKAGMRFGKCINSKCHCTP) [compound 5] , give its reported Activity of Nav1.5 with peptide, expressed as a percentage of the reference compound. 107

For the substance 3 (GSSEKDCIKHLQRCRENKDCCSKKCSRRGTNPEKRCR) [compound 3] , give its reported Activity of Nav1.5 with peptide, expressed as a percentage of the reference compound. 111

For the substance 14 (GSDRDSCIDKSRCSKYGYYQECQDCCKKAGHNGGTCMFFKCKCA) [compound 14] , give its reported Activity of Nav1.5 with peptide, expressed as a percentage of the reference compound. 82

For the substance 30 (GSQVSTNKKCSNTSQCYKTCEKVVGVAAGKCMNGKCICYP) [compound 30] , give its reported Activity of Nav1.5 with peptide, expressed as a percentage of the reference compound. 102

Alright, here's another substance for you.
For the substance 22 (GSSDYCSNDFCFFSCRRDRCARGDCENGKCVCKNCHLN) [compound 22] , give its reported Activity of Nav1.5 with peptide, expressed as a percentage of the reference compound. 90

---

target: Cav2.2 (Homo sapiens, UniProt Q00975); construct: host or cells: HEK293 or CHO; experiment: cell-based; conditions: peptide at 0.2 μM; 100% = no change, <100% = inhibition
Sequence (Q00975 whole entry): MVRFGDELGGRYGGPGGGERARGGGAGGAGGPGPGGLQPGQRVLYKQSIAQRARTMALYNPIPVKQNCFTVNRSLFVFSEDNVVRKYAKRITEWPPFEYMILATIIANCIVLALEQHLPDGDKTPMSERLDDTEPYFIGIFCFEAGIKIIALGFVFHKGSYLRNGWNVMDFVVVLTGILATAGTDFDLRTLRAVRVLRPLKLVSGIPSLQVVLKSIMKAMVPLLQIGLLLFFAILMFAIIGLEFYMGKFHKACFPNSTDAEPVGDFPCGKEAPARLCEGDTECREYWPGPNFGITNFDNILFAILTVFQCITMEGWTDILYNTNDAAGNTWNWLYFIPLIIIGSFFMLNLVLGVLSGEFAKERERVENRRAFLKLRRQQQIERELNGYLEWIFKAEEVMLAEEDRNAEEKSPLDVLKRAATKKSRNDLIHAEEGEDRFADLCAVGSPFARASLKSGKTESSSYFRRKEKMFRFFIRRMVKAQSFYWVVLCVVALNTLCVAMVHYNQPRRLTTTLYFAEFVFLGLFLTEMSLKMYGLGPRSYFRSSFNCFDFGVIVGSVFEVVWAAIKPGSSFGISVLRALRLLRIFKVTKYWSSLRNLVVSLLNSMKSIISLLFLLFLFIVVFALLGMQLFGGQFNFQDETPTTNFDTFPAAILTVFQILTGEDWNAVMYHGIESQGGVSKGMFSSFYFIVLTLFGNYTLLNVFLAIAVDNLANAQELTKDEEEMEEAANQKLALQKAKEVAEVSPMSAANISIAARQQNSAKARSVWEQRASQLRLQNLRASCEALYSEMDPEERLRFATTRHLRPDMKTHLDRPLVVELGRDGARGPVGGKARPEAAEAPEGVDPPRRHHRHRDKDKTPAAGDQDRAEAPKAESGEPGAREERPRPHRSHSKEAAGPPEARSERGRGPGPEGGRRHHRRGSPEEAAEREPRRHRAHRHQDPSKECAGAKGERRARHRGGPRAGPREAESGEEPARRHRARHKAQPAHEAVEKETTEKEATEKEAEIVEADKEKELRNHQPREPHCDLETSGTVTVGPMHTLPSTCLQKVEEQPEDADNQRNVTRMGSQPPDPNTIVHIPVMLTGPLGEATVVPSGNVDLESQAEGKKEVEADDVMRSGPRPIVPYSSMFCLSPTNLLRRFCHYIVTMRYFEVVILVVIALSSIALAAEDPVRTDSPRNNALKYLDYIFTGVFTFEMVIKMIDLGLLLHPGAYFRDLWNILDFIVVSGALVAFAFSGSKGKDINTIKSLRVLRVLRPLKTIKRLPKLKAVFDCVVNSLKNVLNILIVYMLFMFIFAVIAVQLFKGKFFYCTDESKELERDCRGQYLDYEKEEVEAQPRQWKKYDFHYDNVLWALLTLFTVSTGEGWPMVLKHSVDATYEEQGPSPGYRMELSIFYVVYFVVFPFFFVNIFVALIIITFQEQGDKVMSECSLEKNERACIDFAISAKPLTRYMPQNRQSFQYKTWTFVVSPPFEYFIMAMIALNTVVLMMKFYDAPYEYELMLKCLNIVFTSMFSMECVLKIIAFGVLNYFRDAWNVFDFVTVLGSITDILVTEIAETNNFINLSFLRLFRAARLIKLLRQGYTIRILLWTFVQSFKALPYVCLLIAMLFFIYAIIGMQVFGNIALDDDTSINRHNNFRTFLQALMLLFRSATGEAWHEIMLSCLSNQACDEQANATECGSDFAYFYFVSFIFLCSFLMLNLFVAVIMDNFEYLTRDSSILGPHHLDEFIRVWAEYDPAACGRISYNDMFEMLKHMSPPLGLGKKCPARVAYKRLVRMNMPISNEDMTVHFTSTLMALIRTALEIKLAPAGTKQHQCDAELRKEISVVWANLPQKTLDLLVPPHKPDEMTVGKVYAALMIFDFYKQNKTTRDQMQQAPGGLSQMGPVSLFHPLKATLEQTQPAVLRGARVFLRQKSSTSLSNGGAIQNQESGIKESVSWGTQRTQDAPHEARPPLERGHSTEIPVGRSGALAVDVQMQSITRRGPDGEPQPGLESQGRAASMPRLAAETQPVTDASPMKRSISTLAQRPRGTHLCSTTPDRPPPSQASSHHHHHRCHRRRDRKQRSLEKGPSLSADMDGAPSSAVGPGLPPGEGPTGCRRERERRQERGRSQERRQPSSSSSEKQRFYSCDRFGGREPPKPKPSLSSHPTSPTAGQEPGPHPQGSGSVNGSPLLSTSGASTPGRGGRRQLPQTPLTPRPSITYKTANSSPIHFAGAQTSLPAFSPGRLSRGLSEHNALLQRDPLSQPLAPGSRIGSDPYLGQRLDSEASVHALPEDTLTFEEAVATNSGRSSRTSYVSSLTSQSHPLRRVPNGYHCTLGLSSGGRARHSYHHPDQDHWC
Sequence (P54289 25-1103, further chain): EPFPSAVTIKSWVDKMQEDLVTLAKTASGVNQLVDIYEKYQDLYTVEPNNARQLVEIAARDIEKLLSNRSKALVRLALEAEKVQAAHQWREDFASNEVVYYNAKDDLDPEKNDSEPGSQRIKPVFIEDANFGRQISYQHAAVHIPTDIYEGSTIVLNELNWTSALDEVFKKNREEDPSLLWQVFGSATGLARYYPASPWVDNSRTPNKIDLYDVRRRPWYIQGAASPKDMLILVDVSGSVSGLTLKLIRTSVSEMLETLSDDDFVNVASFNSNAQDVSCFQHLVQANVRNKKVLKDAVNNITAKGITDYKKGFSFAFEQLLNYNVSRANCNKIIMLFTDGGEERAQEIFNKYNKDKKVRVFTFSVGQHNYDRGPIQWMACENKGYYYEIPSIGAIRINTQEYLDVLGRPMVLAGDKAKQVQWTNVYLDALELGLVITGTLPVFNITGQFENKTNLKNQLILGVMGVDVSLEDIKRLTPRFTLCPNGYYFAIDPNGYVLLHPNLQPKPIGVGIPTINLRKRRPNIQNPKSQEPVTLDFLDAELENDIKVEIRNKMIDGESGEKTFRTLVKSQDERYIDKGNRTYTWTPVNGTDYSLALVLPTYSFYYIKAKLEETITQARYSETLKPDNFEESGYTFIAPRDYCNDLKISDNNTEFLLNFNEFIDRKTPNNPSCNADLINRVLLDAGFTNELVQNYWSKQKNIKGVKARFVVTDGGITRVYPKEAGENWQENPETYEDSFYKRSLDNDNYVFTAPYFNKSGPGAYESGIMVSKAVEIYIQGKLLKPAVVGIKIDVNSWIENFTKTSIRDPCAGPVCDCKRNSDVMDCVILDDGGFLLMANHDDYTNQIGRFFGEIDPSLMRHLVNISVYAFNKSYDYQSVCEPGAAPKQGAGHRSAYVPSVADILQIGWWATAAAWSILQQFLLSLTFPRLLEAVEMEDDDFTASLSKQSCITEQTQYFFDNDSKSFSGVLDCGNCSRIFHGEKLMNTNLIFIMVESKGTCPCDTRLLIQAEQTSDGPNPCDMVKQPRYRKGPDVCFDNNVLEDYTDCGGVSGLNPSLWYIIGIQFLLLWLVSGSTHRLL
Sequence (P54284 whole entry, further chain): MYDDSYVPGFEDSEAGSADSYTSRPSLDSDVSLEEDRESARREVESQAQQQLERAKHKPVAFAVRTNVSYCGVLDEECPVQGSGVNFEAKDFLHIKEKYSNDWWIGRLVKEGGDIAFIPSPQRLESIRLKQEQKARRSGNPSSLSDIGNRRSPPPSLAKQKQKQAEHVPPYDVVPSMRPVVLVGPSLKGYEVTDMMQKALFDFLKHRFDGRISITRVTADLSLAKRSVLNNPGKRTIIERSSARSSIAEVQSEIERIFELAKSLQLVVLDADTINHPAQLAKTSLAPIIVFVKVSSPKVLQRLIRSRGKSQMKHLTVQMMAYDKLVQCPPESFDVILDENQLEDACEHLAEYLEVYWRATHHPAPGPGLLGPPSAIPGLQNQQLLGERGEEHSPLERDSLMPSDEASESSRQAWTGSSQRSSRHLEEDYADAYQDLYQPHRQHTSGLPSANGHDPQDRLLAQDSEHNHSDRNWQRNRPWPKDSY
Activity of Cav2.2 with peptide, expressed as a percentage of the reference compound by entry:
State just the number; it will be interpreted in %.

For the substance 16 (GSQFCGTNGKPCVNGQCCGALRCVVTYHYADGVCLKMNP) [compound 16] , give its reported Activity of Cav2.2 with peptide, expressed as a percentage of the reference compound. 124

---
For the substance 22 (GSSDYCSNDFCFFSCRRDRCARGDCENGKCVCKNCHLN) [compound 22] , give its reported Activity of Cav2.2 with peptide, expressed as a percentage of the reference compound. 130

For the substance 32 (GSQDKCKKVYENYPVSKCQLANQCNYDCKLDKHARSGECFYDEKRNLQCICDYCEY) [compound 32] , give its reported Activity of Cav2.2 with peptide, expressed as a percentage of the reference compound. 102

For the substance 25 (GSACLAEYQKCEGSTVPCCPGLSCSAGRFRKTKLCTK) [compound 25] , give its reported Activity of Cav2.2 with peptide, expressed as a percentage of the reference compound. 111

For the substance 13 (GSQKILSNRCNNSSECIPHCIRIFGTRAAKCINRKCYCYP) [compound 13] , give its reported Activity of Cav2.2 with peptide, expressed as a percentage of the reference compound. 121

For the substance 34 (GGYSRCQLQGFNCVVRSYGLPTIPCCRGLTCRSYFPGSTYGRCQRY) [compound 34] , give its reported Activity of Cav2.2 with peptide, expressed as a percentage of the reference compound. 130

For the substance 5 (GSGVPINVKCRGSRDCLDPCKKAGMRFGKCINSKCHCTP) [compound 5] , give its reported Activity of Cav2.2 with peptide, expressed as a percentage of the reference compound. 94

Cited source for all entries: patent US20200262877A1
